Biological target: Ret M918T (Homo sapiens (Human), UniProt P07949, M918T)
Sequence (P07949 29-1114 M918T): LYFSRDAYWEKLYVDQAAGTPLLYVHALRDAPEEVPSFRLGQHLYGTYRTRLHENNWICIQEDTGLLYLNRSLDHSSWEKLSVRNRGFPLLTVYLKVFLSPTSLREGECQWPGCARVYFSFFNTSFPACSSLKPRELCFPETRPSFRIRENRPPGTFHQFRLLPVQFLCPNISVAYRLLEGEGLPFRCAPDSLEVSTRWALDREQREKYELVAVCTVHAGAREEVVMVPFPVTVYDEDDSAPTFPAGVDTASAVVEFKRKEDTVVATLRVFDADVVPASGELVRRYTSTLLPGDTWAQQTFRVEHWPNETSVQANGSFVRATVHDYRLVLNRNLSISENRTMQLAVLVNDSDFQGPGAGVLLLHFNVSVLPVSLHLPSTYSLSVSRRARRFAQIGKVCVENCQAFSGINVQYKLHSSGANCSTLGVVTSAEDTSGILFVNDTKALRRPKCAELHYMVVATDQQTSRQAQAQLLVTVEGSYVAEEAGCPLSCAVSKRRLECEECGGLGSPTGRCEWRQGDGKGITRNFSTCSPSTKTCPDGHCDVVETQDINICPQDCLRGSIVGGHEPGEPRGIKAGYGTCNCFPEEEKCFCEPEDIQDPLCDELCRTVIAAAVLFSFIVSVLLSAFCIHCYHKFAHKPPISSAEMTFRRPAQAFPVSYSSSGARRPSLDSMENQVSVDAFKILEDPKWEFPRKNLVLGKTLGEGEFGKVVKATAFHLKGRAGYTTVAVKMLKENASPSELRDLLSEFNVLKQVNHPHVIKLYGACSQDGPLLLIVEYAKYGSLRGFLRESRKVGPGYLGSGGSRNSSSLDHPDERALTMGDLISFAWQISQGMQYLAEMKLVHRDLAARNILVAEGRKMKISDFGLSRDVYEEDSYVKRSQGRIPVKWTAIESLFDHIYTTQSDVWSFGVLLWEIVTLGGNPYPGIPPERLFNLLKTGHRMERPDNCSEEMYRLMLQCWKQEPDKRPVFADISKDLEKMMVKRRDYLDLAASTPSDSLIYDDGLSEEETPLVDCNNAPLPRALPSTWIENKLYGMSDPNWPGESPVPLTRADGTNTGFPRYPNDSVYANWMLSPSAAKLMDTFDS
Assay: HTRF kinase inhibition assay, Ret M918T
Format: biochemical
Conditions: HTRF method
resultType: IC50 (nM)
Quick note: give the figure in nM, leave out the unit.

[[record]]
smilesstructure = "COc1ccc(C#CCN2C3CC2CN(c2ccc(-c4cc(-c5cnn(C)c5)cn5ncc(C#N)c45)cn2)C3)cn1"
resulttype = "IC50"
unitstext = "nM"
observed = 0.62

[[record]]
smilesstructure = "Cn1cc(-c2cc(-c3ccc(N4CCN(C(=O)C#Cc5ccccc5)CC4)nc3)c3c(C#N)cnn3c2)cn1"
resulttype = "IC50"
unitstext = "nM"
observed = 0.97


# input I would be grateful if you could share the reported IC50 for C#Cc1ccc(C(=O)N2CCN(c3ccc(-c4cc(-c5cnn(C)c5)cn5ncc(C#N)c45)cn3)CC2)cc1 .
# output 0.7

# input I would be grateful if you could share the reported IC50 for COc1cncc(C#CCN2C3CC2CN(c2ccc(-c4cc(-c5cnn(C)c5)cn5ncc(C#N)c45)cn2)C3)c1 .
# output 0.183

# input I would be grateful if you could share the reported IC50 for C#Cc1cccc(C(=O)NC2(C)CCN(c3ccc(-c4cc(-c5cnn(C)c5)cn5ncc(C#N)c45)cn3)CC2)c1 .
# output 2.8
